# Protocol Notes: Selectivity index, ratio of CC50 for cytotoxicity against human HepG2 cells by MTT assay to EC50 for antiplasmodial activity against erythrocytic stage of Plasmodium falciparum NF54 by [3H]-hypoxanthine incorporation based liquid scintillation counting method
# Type: toxicity, cell-based
# Details: read-out: Ratio CC50/EC50
Measurement Label: selectivity ratio
Enter a number only.

Documented selectivity ratio of CC1(C)C2CC=C(CC(=O)Oc3ccnc4cc(Cl)ccc34)[C@@H]1C2 : 0.7

Documented selectivity ratio of CC1(C)C2CC=C(CC(=O)Nc3ccnc4cc(Cl)ccc34)[C@@H]1C2 : 0.7

***
Documented selectivity ratio of CC1(C)C2CC=C(CC(=O)Nc3ccnc4ccccc34)[C@@H]1C2 : 0.2

---

# Protocol Notes: Selectivity index, ratio of CC50 for cytotoxicity against human HepG2 cells by MTT assay to EC50 for antiplasmodial activity against erythrocytic stage of Plasmodium falciparum K1 by [3H]-hypoxanthine incorporation based liquid scintillation counting method
# Assay type: toxicity, cell-based
# Details: read-out: Ratio CC50/EC50
Measurement Label: selectivity ratio
Enter a number only.

Documented selectivity ratio of CC1(C)C2CC=C(CC(=O)Nc3ccnc4cc(Cl)ccc34)[C@@H]1C2 : 1.8

Attention now turns to another entry.
Documented selectivity ratio of CC1(C)C2CC=C(CC(=O)Nc3ccnc4ccccc34)[C@@H]1C2 : 0.3

---

# Target Desc: Falcipain 2 (Plasmodium falciparum, UniProt Q9N6S8)
# Sequence (Q9N6S8 whole entry): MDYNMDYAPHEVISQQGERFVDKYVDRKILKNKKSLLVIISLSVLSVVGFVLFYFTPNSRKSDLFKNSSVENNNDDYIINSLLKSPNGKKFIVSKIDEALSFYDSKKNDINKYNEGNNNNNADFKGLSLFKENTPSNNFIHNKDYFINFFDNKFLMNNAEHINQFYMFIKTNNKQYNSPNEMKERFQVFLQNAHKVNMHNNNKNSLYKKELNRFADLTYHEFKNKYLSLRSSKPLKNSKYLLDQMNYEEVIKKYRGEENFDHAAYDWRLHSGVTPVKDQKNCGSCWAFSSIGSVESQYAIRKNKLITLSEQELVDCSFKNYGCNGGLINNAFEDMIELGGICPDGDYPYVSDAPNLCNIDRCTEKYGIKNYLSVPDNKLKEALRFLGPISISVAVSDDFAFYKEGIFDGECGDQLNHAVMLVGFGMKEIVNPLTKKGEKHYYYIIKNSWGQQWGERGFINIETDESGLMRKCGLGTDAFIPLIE
# Protocol Notes: Inhibition of Plasmodium falciparum recombinant His-tagged falcipain-2 expressed in Escherichia coli assessed as inhibition constant using Cbz-Phe-Arg-AMC as substrate by fluorescence spectrophotometer assay
Measurement Label: pKi
Lab note — pKi values are minus log10 of concentrations in M.

// compound N=C(NC(=O)OCc1ccccc1)NC(=O)c1ccc(C(=O)OCc2ccccc2)o1 , assay Falcipain 2 (Plasmodium falciparum, UniProt Q9N6S8), pKi value: 5.57

// compound N=C(NC(=O)OCc1ccccc1)NC(=O)c1ccc(C(=O)NCc2ccc(NC(=O)OCc3ccccc3)cc2)o1 , assay Falcipain 2 (Plasmodium falciparum, UniProt Q9N6S8), pKi value: 5.97

---

# Test system: Plasmodium falciparum
# Protocol Notes: Antiplasmodial activity against erythrocytic stage of Plasmodium falciparum NF54 assessed as reduction of parasite growth incubated for 48 hrs by [3H]-hypoxanthine incorporation based beta-plate liquid scintillation counting method
# Format: functional, organism-based
The following compounds are shown together with reported pEC50 values.
Lab note — pEC50 values are minus log10 of concentrations in M.

# annotated cases, reported pEC50 shown
// compound CC1(C)C2CC=C(CC(=O)Nc3ccnc4ccccc34)[C@@H]1C2 , assay Plasmodium falciparum, pEC50 value: 4.63

// compound CC1(C)C2CC=C(CC(=O)Oc3ccnc4cc(Cl)ccc34)[C@@H]1C2 , assay Plasmodium falciparum, pEC50 value: 4.63

Attention now turns to another entry.
// compound CC1(C)C2CC=C(CC(=O)Nc3ccnc4cc(Cl)ccc34)[C@@H]1C2 , assay Plasmodium falciparum, pEC50 value: 4.67

---

# Test system: Plasmodium falciparum
# Protocol Notes: Antiplasmodial activity against Plasmodium falciparum K1 infected in human erythrocyte assessed as inhibition of parasite growth incubated for 72 hrs by [3H]-hypoxanthine incorporation based liquid scintillation counting method
# Assay type: functional, organism-based
Measurement Label: IC50
Number first, unit second.

Documented IC50 of C=C(C)[C@H](O)[C@@H](O)C[C@@H](C)C1=C2C[C@H](O)[C@H]3[C@@]4(C)CCC(=O)C(C)(C)[C@@H]4CC[C@]3(C)[C@@]2(C)CC1 : 6.98 µM

***
Documented IC50 of C[C@H](C[C@H](O)[C@@H](O)C(C)(C)O)C1=C2C[C@H](O)[C@H]3[C@@]4(C)CCC(=O)C(C)(C)[C@@H]4CC[C@]3(C)[C@@]2(C)CC1 : 13.8 µM

---

# Tested on: Plasmodium falciparum
# Protocol Notes: Antiplasmodial activity against Plasmodium falciparum TM90-C2A assessed as inhibition of parasite growth incubated for 72 hrs by SYBR Green I dye based fluorescence assay
# Format: functional, organism-based
Measurement Label: IC50 (nM)
Report as a plain number; the unit nM is understood.

Documented IC50 of C/C1=C\C(=O)O[C@@H](C(C)(C)C)CCC[C@@H](O)CCC[C@H](O)CCC[C@H](O)CCC[C@@H](O)C[C@H](O)C[C@@H](O)CCC[C@H](O)CCC[C@H](O)C[C@@H](O)CCCCC1 : 80

---

# Protocol Notes: Selectivity index, ratio of CC50 for cytotoxicity against human HepG2 cells by MTT assay to IC50 for antiplasmodial activity against chloroquine resistant Plasmodium falciparum W2 by SYBR green I dye based fluorescence assay
# Format: toxicity, cell-based
# Details: read-out: Ratio CC50/IC50
Measurement Label: selectivity ratio
Enter a number only.

Documented selectivity ratio of c1cc(CNCCCN2CCN(CCCNCc3cccc(-c4nc5ccccc5n5cccc45)c3)CC2)cc(-c2nc3ccccc3n3cccc23)c1 : 40.6

---

# System: Plasmodium falciparum
# Protocol Notes: Antiplasmodial activity against Plasmodium falciparum W2 assessed as inhibition of parasite growth incubated for 72 hrs by SYBR Green I dye based fluorescence assay
# Assay type: functional, organism-based
# Details: W2, 72 h
Measurement Label: IC50 (nM)
Report as a plain number; the unit nM is understood.

Documented IC50 of C/C1=C\C(=O)O[C@@H](C(C)(C)C)CCC[C@@H](O)CCC[C@H](O)CCC[C@H](O)CCC[C@@H](O)C[C@H](O)C[C@@H](O)CCC[C@H](O)CCC[C@H](O)C[C@@H](O)CCCCC1 : 140

---

# Test system: Plasmodium falciparum
# Protocol Notes: Antiplasmodial activity against Plasmodium falciparum TM90-C2B assessed as inhibition of parasite growth incubated for 72 hrs by SYBR Green I dye based fluorescence assay
# Format: functional, organism-based
Measurement Label: pIC50
Lab note — pIC50 values are minus log10 of concentrations in M.

Documented pIC50 of C/C1=C\C(=O)O[C@@H](C(C)(C)C)CCC[C@@H](O)CCC[C@H](O)CCC[C@H](O)CCC[C@@H](O)C[C@H](O)C[C@@H](O)CCC[C@H](O)CCC[C@H](O)C[C@@H](O)CCCCC1 : 7.05

---

# Tested on: Plasmodium falciparum
# Protocol Notes: Antiplasmodial activity against Plasmodium falciparum 3D7 assessed as inhibition of parasite growth incubated for 72 hrs by LDH assay based spectrofluorometric analysis
# Assay type: functional, organism-based
# Details: 3D7, 72 h
Measurement Label: IC50 (nM)
Report as a plain number; the unit nM is understood.

Documented IC50 of C/C1=C\[C@H](C)CC[C@@H](O)/C(C)=C/[C@H](C)C[C@@H](C)CC[C@@H]([C@@H](C)C(=O)O)OC(=O)[C@@H](C)C1 : 13

Documented IC50 of C/C1=C\[C@H](C)[C@@H](O)C[C@@H](O)/C(C)=C/[C@H](C)C[C@@H](C)CC[C@@H]([C@@H](C)C(=O)O)OC(=O)[C@@H](C)C1 : 128

Documented IC50 of C/C1=C\[C@H](C)CCC(=O)/C(C)=C/[C@H](C)C[C@@H](C)CC[C@@H]([C@@H](C)C(=O)O)OC(=O)[C@@H](C)C1 : 9810

***
Documented IC50 of C/C1=C\[C@H](C)C(=O)C[C@@H](O)/C(C)=C/[C@H](C)C[C@@H](C)CC[C@@H]([C@@H](C)C(=O)O)OC(=O)[C@@H](C)C1 : 123

---

# System: Plasmodium falciparum
# Protocol Notes: Antiplasmodial activity against chloroquine sensitive Plasmodium falciparum 3D7 assessed as inhibition of parasite growth incubated for 48 hrs by SYBR green I dye based fluorescence assay
# Type: functional, organism-based
# Details: 3D7, 48 h
Measurement Label: pIC50
Lab note — pIC50 values are minus log10 of concentrations in M.

// molecule COc1ccc2c(c1)nc(-c1cccc(CNCCCN3CCN(CCCNCc4cccc(-c5nc6ccc(OC)cc6n6cccc56)c4)CC3)c1)c1cccn12 , assay Plasmodium falciparum, pIC50 value: 7.40

Attention now turns to another entry.
// molecule c1cc(CNCCCN2CCN(CCCNCc3cccc(-c4nc5ccccc5n5cccc45)c3)CC2)cc(-c2nc3ccccc3n3cccc23)c1 , assay Plasmodium falciparum, pIC50 value: 6.43

---

# Protocol Notes: Cytotoxicity against human HepG2 cells assessed as reduction in cell viability incubated for 72 hrs by MTT assay
# Type: toxicity, cell-based
Measurement Label: CC50 at 72 h (µM)
Report as a plain number; the unit µM is understood.

Documented CC50 at 72 h of CC1(C)C2CC=C(CC(=O)Nc3ccnc4cc(Cl)ccc34)[C@@H]1C2 : 14.3

Documented CC50 at 72 h of CC1(C)C2CC=C(CC(=O)Nc3ccnc4ccccc34)[C@@H]1C2 : 3.98

---

# Test system: Plasmodium falciparum
# Protocol Notes: Antiplasmodial activity against chloroquine resistant Plasmodium falciparum Dd2 assessed as inhibition of parasite growth incubated for 72 hrs by LDH assay based spectrofluorometric analysis
# Format: functional, organism-based
# Details: Dd2, 72 h
Measurement Label: pIC50
Lab note — pIC50 values are minus log10 of concentrations in M.

Documented pIC50 of C/C1=C\[C@H](C)[C@@H](O)C[C@@H](O)/C(C)=C/[C@H](C)C[C@@H](C)CC[C@@H]([C@@H](C)C(=O)O)OC(=O)[C@@H](C)C1 : 6.74

Attention now turns to another entry.
Documented pIC50 of C/C1=C\[C@H](C)CC[C@@H](O)/C(C)=C/[C@H](C)C[C@@H](C)CC[C@@H]([C@@H](C)C(=O)O)OC(=O)[C@@H](C)C1 : 7.49

// data source = ChEMBL document CHEMBL5352391
